Biological target: BRD4 bromo domain 1 [BRD4(1)] (Homo sapiens, UniProt O60885)
Construct: N-terminally His6-tagged BRD4(1) (amino acids 67-152)
Assay: BRD4/acetylated peptide H4 binding assay (TR-FRET), BRD4 bromo domain 1
Details: inhibition of BRD4(1)/Ac-H4 peptide interaction
OUTCOME_MEASURE: IC50 (nM)

Cc1ccc(Nc2ccc3c(n2)N(C2CCOCC2)[C@H](C)C(=O)N3C)cc1S(N)(=O)=O [Example 63] = 163
C[C@@H]1C(=O)N(C)c2ccc(Nc3cccc(S(=O)(=O)N[C@H]4CC[C@H](N5CCN(CC6CC6)CC5)CC4)c3)nc2N1C1CCN(C(=O)OC(C)(C)C)CC1 [Example 52] = 80

(A) CC(C)N1c2nc(Nc3cccc(C(=O)NC4CCN(C)CC4)c3)ccc2N(C)C(=O)[C@H]1C [Example 94]
(B) C[C@@H]1C(=O)N(C)c2ccc(Nc3cccc(C(=O)NC4CCC(O)CC4)c3)nc2N1C1CCCCC1 (some centres unmarked) [Example 86]
Given A and given B , which shows the smaller recorded IC50? Indicate which entry you chose by stating its label.
B

(I) C[C@@H]1C(=O)N(C)c2ccc(Nc3cccc(S(=O)(=O)N4CC5(CCC5)C4)c3)nc2N1C1CCN(C(=O)OC(C)(C)C)CC1 [Example 60]
(II) C[C@@H]1C(=O)N(C)c2ccc(Nc3cccc(S(=O)(=O)NCCN(C)C)c3)nc2N1C1CCOCC1 [Example 21]
Given I and given II , which shows the smaller recorded IC50? Indicate which entry you chose by stating its label.
II

---

Target: BRD4 bromo domain 2 [BRD4(2)] (Homo sapiens, UniProt O60885)
Construct: N-terminally His6-tagged BRD4(2) (amino acids 357-445)
Assay: BRD4/acetylated peptide H4 binding assay (TR-FRET), BRD4 bromo domain 2
Details: inhibition of BRD4(2)/Ac-H4 peptide interaction
Text: Protein-Protein Interaction Assay: BRD4/Acetylated Peptide H4 Binding Assay To assess the BRD4(2) binding strength of the substances described in this application, the ability thereof to inhibit the interaction between BRD4(2) and acetylated histone H4 in a dose-dependent manner was quantified. […]
OUTCOME_MEASURE: IC50 (nM)

(A) C[C@@H]1C(=O)N(C)c2ccc(Nc3cccc(S(=O)(=O)NCCN(C)C)c3)nc2N1C1CCN(C(=O)OC(C)(C)C)CC1
(B) CC(C)N1c2nc(Nc3cccc(C(=O)N[C@H]4CC[C@H](N5CCN(CC6CC6)CC5)CC4)c3)ccc2N(C)C(=O)[C@H]1C
Hi team, can someone confirm which has the larger IC50: A or B ? Thanks. Indicate which entry you chose by stating its label.
B

---

Biological target: BRD4 bromo domain 2 [BRD4(2)] (Homo sapiens, UniProt O60885)
Construct: N-terminally His6-tagged BRD4(2) (amino acids 357-445)
Test: BRD4/acetylated peptide H4 binding assay (TR-FRET), BRD4 bromo domain 2
Details: inhibition of BRD4(2)/Ac-H4 peptide interaction
OUTCOME_MEASURE: IC50 (nM)

Examples from the recorded data:
C[C@@H]1C(=O)N(C)c2ccc(Nc3cccc(S(=O)(=O)N[C@H]4CC[C@H](N5CCN(CC6CC6)CC5)CC4)c3)nc2N1C1CCNCC1 [Example 127] = 90
C[C@@H]1C(=O)N(C)c2ccc(Nc3cccc(C(=O)NCCN4CCN(C)CC4)c3)nc2N1Cc1ccccc1 [Example 74] = 91

(1) C[C@@H]1C(=O)N(C)c2ccc(Nc3cccc(S(=O)(=O)N[C@H]4CC[C@H](N5CCN(CC6CC6)CC5)CC4)c3)nc2N1Cc1ccccc1 [Example 38]
(2) COc1ccc(C(=O)NC2CCN(C)CC2)cc1Nc1ccc2c(n1)N(C1CCOCC1)[C@H](C)C(=O)N2C [Example 16]
(3) COCCN1c2nc(Nc3cccc(C(=O)NC4CCN(C)CC4)c3)ccc2N(C)C(=O)[C@@H]1C (stereo in doubt) [Example 120]
(4) CC(C)N1c2nc(Nc3cccc(S(=O)(=O)N4CCN(C)CC4)c3)ccc2N(C)C(=O)[C@H]1C [Example 43]
Sort ascending by IC50. Labels, requested order.
1, 4, 2, 3

(P) C[C@@H]1C(=O)N(C)c2ccc(Nc3cccc(S(=O)(=O)NCCN(C)C)c3)nc2N1C1CCOCC1 [Example 21]
(Q) C[C@@H]1C(=O)N(C)c2ccc(Nc3cccc(C(=O)NC4CCN(C)CC4)c3)nc2N1C1CCOCC1 [Example 13]
Given P and given Q , which shows the smaller recorded IC50? Indicate which entry you chose by stating its label.
P
